Hello, the source for this data is the Human Domainome abundance scans (Beltran et al. 2025), in case you need it.

Readings of abundance fitness for the listed variants
B1: Serine/threonine-protein kinase A-Raf, residues 21 to 89; numbered along this chain, P10398 (parent)
chain: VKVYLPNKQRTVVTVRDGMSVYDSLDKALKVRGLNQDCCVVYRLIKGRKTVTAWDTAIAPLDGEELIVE

Variants of: B1
Experiment: abundance fitness (aPCA) (normalised: wild type 0, dead -1); higher = more abundant; growth selection in yeast, the domain comes from the species named
Conditions: Homo sapiens

{"MUT": "K30I", "abundance fitness": -0.63}
{"MUT": "G33V", "abundance fitness": -0.573}
{"MUT": "S24F", "abundance fitness": -0.349}
{"MUT": "T52L", "abundance fitness": 0.052}
{"MUT": "E69V", "abundance fitness": -0.43}
{"MUT": "W54V", "abundance fitness": -0.913}
{"MUT": "T56V", "abundance fitness": -0.235}
{"MUT": "R10E", "abundance fitness": 0.118}
{"MUT": "V41N", "abundance fitness": -0.836}
{"MUT": "K30M", "abundance fitness": -0.288}
{"MUT": "V31L", "abundance fitness": 0.005}
{"MUT": "Y22L", "abundance fitness": -0.04}
{"MUT": "P60K", "abundance fitness": 0.024}
{"MUT": "N35E", "abundance fitness": 0.016}
{"MUT": "L29M", "abundance fitness": 0.191}
{"MUT": "V12G", "abundance fitness": -0.983}
{"MUT": "R16H", "abundance fitness": 0.191}
{"MUT": "K8C", "abundance fitness": -0.243}
{"MUT": "D26K", "abundance fitness": -0.076}
{"MUT": "M19K", "abundance fitness": -0.223}
{"MUT": "G47Q", "abundance fitness": -0.359}
{"MUT": "E64W", "abundance fitness": -0.215}
